B1: TPR t1 (parent)
chain: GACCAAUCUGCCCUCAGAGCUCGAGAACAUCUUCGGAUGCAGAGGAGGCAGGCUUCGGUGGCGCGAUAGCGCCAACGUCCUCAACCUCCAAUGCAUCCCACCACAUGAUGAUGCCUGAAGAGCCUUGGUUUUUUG

Variants of: B1
measurement protocol: polymerase ribozyme fitness, log enrichment relative to wild type (log ratio); higher = more active; in vitro selection for triplet polymerase activity
Please enter t where polymerase ribozyme fitness (log ratio) is greater than or equal to -2, and f where it is lower.

record sequence: GACCAAUCUGCCCUCAGAGCUCGAGAACAUCUUCGGAUGCAGAGGAUGCAGGCUUCGGUGGCGCGAUAGCGCCAACGUCCUCAACCUCCAAUGCAUCCCACCACCAGAUGAUGCCUGAAGAGCCUUGGUUUUUUG [G47U A105C U106A]
cat: t
--
record sequence: GACCAAUCUGCCCUCAGAGUUCGAGAACAUCUUCGGAUGCAGAGGAGGCAGGCUUCGGUGGCGCGAUAGCGCCAACGUCCUCCACCUCCAAUGCAUCCCACCACAUGAUGAGGCCUGAAGAGCCUUGGUUUUUUG [C20U A83C U112G]
cat: f
--
record sequence: GACCAAUCUGCCCUCAGAGCUCGAGAACAUCUUCGGAUGCAGAGGAGGCAGGCUACGGUGGCCCGAUAGCGUCAACCUCCUCAACCUCCAAUGCAUCCCACCAAAUGAUGAUGCCUGAAGAGCCUUGGUUUUUUG [U55A G63C C72U G77C C104A]
cat: f
--
record sequence: GACCAAUCUGCCCUCAGAGCUCGAGAACAUCUUCGCAUGCAGAGGAGGCAGGCUUCGGUGGCGCGAUAGCGCCAACGUCCUCAACCUCCAAUGCAUCCCACCACAUGAUGAUUCCUGAAGAGCCUUGGAUUUUUG [G36C G113U U129A]
cat: f
--
record sequence: GACCAUUCUGCCCUCAGAGCUCGAGAACAUCUUCGGAUGCAGAGGAGGCAGGCUUCGGUGGCGCGAUAGCACCAACGUCCUCGACCUCCAAUGCAUCCCACCACAUGAUGAUGCCUGAAGAGCCUUGGUUUUUUG [A6U G71A A83G]
cat: t
--
record sequence: GACCAAUCUGCCCUCAGAGCUCGAGAAAAUCUUCGGAUGCAGUGGAGGCAGGCUUCGGUGGCGCGAUAGCGCCAACGUCCUCAACCUCCAAUGCAUCCCACCACAUGAUGAUGCCUGAAGAGCCUUGGUUUUUUG [C28A A43U]
cat: f
--
record sequence: GACCAAUCUGCCCUCAGAGCUCGAGAACAUCUUCGGAUGCAGAGGAGGCAGGCUUCGGUGGCGCGAUAGCGCCAACGUCCUCAACCUCCAAUGCAUCCCACCACAUGAUGAUGCCUCAAGAUCCUUGGUUUUUUG [G117C G122U]
cat: f
--
record sequence: GACCAAUCGGCCCUCAGAGCUCGAGAACAUCUUCGGAUGCAGAGGAGGCAGGCUUCGGUUGUGCGAUAGCGCCAACGUCCUCAACCUCCAAUGCAUCCCACCACAUGAUGAUGCCUGAAGAGCCUUGGUUUUUUG [U9G G60U C62U]
cat: t
--
record sequence: GACCAAUCUGCCCUCAGAGCUCGAGAACGUCUUCGGAUGCAGAGGAGGCAGGCUUCGGUGCCGCGAUAGCGCCAACGUCCUCAACCUCCAAUGCAUCCCACCACAUGAUGAUGCCUGAAGAGCCUUGGUUUUUUG [A29G G61C]
cat: f
--
record sequence: GACCAAUCUGCCUUCAGUGCUCGAGAACAUUUUCGGAUGCAGAGGAGGCAGGCUUCGGUGGCGGGAUAGCGCCAACGUCCUCAACCUCCAAUGCAUCCCACCCCAUGAUAAUGCCUGAAGAGCCUUGGUUUUUUG [C13U A18U C31U C64G A103C G110A]
cat: f
--
record sequence: GACCAAUCUGCACUCAGAGCUCGAGAACAUCUUCGGAUGCAGAGGAGUCAGGCUUCGGUGGCGCGAUAGCGCCAACGUCCUCAACCUCCAAUGCAUCUCACCACAUGAUGAUGCCUGAAGAGCCUUGGUUUUUUG [C12A G48U C98U]
cat: f
--
record sequence: GACCAAUCUGCACUCAGAGCUCGAGAACAUCUUCGGAUGCAGAGGAGGCAGGCUUCGGUGGCGCGAUAGCGCCAACGUCCUCAACGUCCAAUGCAUCCCACCACAUGAUGAUGCCUGAAGAGACUUGGUUUUUUG [C12A C86G C123A]
cat: t
--
record sequence: GACCAAUCUGCCCUCAGAGCUCGAGAACAUCUUCGGAUGGUGAGAAGGCAGGCUUCGGUGGCGCGAUAGCGCCAACGUCCUCAACCUCCAUUGCAUCCCACCACAUGAUGAUGCCUGAAGAGCCUUGGUUUUUUG [C40G A41U G45A A91U]
cat: f
--
record sequence: GACCAAUCUGCCCUCAGAGCUCGAGAACAUCUUCGGAUGCAGAGGAGGCAGGCUUCGGUGGCGCGAUAGCGCCAACGUCCUCAACCUCCAUUGCAUCCCAACACAUGAUGAUGCCUGAAGAGCCUUGGUUUUUUG [A91U C101A]
cat: f
--
record sequence: GACCAAUCUGCCCUCAGAGCUCGAGAACAUCUUCGGAUGCAGAGGAGGCAGGCUUCGGUGGCGCGAUAGCACCAACGUCCUCAACCUCCAAUGCAUCCCACCACAUGAUGAUGCCUGAAUAGCCUCGGUUUUUUG [G71A G120U U126C]
cat: t
--
record sequence: GACCAAUCUGCCCUCAGAGCUCGAGAACAUCUUCGGAUGCAGAGGAGGCAGGCUUCAGUGGCUCGAUAGCGCCAACGUCCUCAACCUCCAAUGCAUCCCACCACAUGAUGAUGCCUGAAGAGCCUUGGUUUUUUG [G57A G63U]
cat: f
--
record sequence: GUCCAAUCUGCCCUCAGAGCUCGAGAACAUCUUCGGAUGCAAAGGAGGCAGGCUUCGGUGGCGCGAUAGCGCCAACGUCCUCUACCUUCAAUGCAUCCCACCACAUGAUGAUGCCUGAAGAGCCUUGGUUUUUUG [A2U G42A A83U C88U]
cat: f
--
record sequence: GACCAAUCUGCCGUCAGAGCUCGAGAACAUCUUCGGAUGCAGAGGAGGCAGGCUUCGAUGGCGCGAUAGUGCCAACGUCCUCAACCUCCAAUGCAUCCCACCACCUGAUGAUGCCUGAAGAGCAUUAGUUUUUUG [C13G G58A C70U A105C C124A G127A]
cat: f
--
record sequence: GACCAAUCUGCCCUCAGAGCUCGAGAACAUCUUUGGAUGCAGAGGAGGCAGGCUUCGGUGGCACGAUAGCGCCAACGUCCUCAACCUCCAAUGCAUCCCACCACAUGAUGAUGCCUGAAGAGCCUUGGUUUUUUG [C34U G63A]
cat: f
--
record sequence: GACCAAUCUGCCCUAAGAGCUCGAGAACAUCUUCGGAUGCCGAGGAGGCAGGCUUCGGUGGCGCGAUAGCGCCAACGUCCUCAACCUCCAAUGCAUCCCACCACAUGAUGAUGCCUGAAGAGCCUUGGUUUUUUG [C15A A41C]
cat: f
--
record sequence: GAGUAAUCUGCCCUCAGAGCUCGAGAACAUCUUCGGAUGCAGAGGAGGCAGGCUUCGGUGGCGCGAUAGCGCCAACGUCCUCUACCUCCAAUGCAUCCCACCACAUGAUGAUGCCUGAAGAUUCUUGGUUUUUUG [C3G C4U A83U G122U C123U]
cat: t
--
record sequence: GACCAAUCUGCCCUCAGAGCUCGAGAACAUCUUCGGAUGCUGAGCAGGCAGGCUUCGGUGGCGCGAUAGCGCCAACGUCCUCAACCUCCAAUGCAUCCCACCACAUGAUGAUGACUGAAGAGCCUUGGUUUUUUG [A41U G45C C114A]
cat: f
